Biological target: T1, recombinant extracellular domain of CD47 (UniProt Q08722 19-139, limits assumed)
T1 construct: extracellular domain; Analyte flowed over the captured antibodies in SPR; also called CD47-ECD
T1 sequence (Q08722 19-139 limits assumed): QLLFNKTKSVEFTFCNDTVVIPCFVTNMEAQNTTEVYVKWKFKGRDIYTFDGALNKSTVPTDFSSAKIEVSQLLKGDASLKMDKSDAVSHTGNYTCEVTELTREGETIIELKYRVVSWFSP
Test: SPR; antibody captured on anti-human Fc, CD47-ECD flowed 0-100 nM; 1:1 Langmuir

- binder: "Ab480/Ab1121 (antibody, V domains shown, FR and CDR L2 variant; Label printed HC first; r442 used; also called HC Ab480 / LC Ab1121) VH: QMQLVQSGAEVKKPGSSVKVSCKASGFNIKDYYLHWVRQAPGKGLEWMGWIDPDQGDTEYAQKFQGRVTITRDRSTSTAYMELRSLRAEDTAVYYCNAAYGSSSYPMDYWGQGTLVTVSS VL: NIQMTQSPSSLSASVGDRVTITCRASQDIHRYLSWFQQKPGKVPKHLIYRYIRFVDGVPSRFSGSGSGTEFTLTISSLQPEDFATYYCLQYDEFPYTFGGGTKVEIK"
  kon, M⁻¹ s⁻¹: "2.67e+06"
- binder: "Ab356/Ab1122 (antibody, V domains shown, FR and CDR L2 variant; Label printed HC first; r445 used; also called HC Ab356 / LC Ab1122) VH: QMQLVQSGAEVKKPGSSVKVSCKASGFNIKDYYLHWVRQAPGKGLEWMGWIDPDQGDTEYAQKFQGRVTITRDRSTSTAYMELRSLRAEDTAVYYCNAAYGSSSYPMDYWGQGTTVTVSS VL: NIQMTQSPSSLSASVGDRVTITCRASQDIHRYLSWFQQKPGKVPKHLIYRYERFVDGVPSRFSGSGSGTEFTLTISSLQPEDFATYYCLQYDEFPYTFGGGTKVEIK"
  kon, M⁻¹ s⁻¹: 22800
- binder: "Ab356/Ab1127 (antibody, V domains shown, FR and CDR L2 variant; Label printed HC first; r460 used; also called HC Ab356 / LC Ab1127) VH: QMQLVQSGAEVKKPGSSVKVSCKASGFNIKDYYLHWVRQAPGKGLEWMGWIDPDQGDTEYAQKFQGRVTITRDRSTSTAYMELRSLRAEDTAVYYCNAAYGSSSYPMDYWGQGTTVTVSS VL: NIQMTQSPSSLSASVGDRVTITCRASQDIHRYLSWFQQKPGKVPKHLIYRESRFVDGVPSRFSGSGSGTEFTLTISSLQPEDFATYYCLQYDEFPYTFGGGTKVEIK"
  kon, M⁻¹ s⁻¹: "2.22e+06"
- binder: "Ab495/Ab480 (antibody, V domains shown, also called LC Ab495 / HC Ab480) VH: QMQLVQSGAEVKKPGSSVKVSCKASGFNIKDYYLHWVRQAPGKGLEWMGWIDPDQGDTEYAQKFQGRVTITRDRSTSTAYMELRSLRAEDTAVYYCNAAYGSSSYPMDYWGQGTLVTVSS VL: NIQMTQSPSSLSASVGDRVTITCKASQDIHRYLSWYQQKPGKAPKHLIYRANRLVSGVPSRFSGSGSGTEFTLTISSLQPEDFATYYCLQYDEFPYTFGGGTKVEIK"
  kon, M⁻¹ s⁻¹: "3.29e+06"
